- METHOD_NOTES: protein stability index of a GFP-peptide fusion (GPS, HEK-293T) (PSI 1-6); higher = more stable;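 note: 24-mer peptide tiles fused after GFP, lentivirally expressed, FACS-sorted into six equal bins by GFP/DsRed ratio, decoded by Illumina sequencing, PSI is the read-weighted mean bin number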
- RUN_CONDITIONS: treatment: MLN4924 1 uM, 8 h; c terminus: a fixed tail appended
Rule: true for protein stability index not less than 3, false for anything less.

| PRIMARY_SEQUENCE | CLASS_LABEL |
| --- | --- |
| VLENLEDSCVLTGPDDSLWDKHAC [TRIB3] | true |
| AVMEFHVSEDFNKMNFIKTYPAHQ [WDFY1] | false |
| NFARLQTCISELRMLQREGCFRSQ [M1AP] | false |
| EAVPARGEPQQDCCVKTELLGEET [EHMT1] | true |
| HWATGYSKSSHPLIRSLFHGFLFM [SOAT1] | false |
| GVSYTFDNEDSELNGDYGENIYPY [MIA2] | true |
| LPPPSAPSLQPSRKLSPTEPKNYG [SCAMP3] | true |
| FSDGEKCRREAFRRLGNGVSDDLS [PHTF1] | true |
| EDLEWERYRGRGSEEYRAPRPQSE [CHGB] | true |
| VGEVPYWVLEPVLEGWRPDQLYRR [ELOA2] | false |
| ACSAPGGLVPSEKPPMMPQAQPAI [C2CD2L] | true |
| NGVSGPSQDLLPPPNPYPLPQEHS [TBX5] | true |
| PGRRGDPDTAPPSERPLEDLRLRL [RTN2] | true |
| QILPVLDFCKVFLISGVTLDNCVE [KLHL13] | false |
| TLGASSLREERGHPLHPRHRKAVH [C6orf223] | true |
| GSNPPYLPFRDASFGNCTYNLTIL [CDC14A] | false |
| PSHGEVGEHKDRIERQWGNLLGEG [ZSCAN9] | true |
| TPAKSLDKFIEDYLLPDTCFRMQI [OAS1] | false |

* * *

- METHOD_NOTES: protein stability index of a GFP-peptide fusion (GPS, HEK-293T) (PSI 1-6); higher = more stable
- RUN_CONDITIONS: treatment: MLN4924 1 uM, 8 h; c terminus: a fixed tail appended

| PRIMARY_SEQUENCE | protein stability index |
| --- | --- |
| EEWLLVGTKQGHLLLYRIRKDVGC [VPS39] | 2.48 |
| ASQCCGVHVISLHIWELSSIKNSL [PTGFR] | 2.31 |
| VASGYHYGVASCEACKAFFKRTIQ [ESRRA] | 2.47 |
| LPPVSTSFTTGGLRIPFPRDCGEE [TNXB] | 4.43 |
| EKVSQELKEPLHKALQMLLSQPVT [BCL2L13] | 3 |
| HGDYFRLLLPGIYTVSATAPGYDP [CPN1] | 2.48 |
| PSGEEEAKVGPGLPDGCQPLQLLR [CBY2] | 4.79 |
| ADLELSLPECLEYEEEFDYETESE [GNAS] | 5.47 |
| TQQNRKLTDFYPVRRSSRKSKAEL [KMT5A] | 3.76 |
| RVRKEAMMGLAQIYKKYALQSAAG [PDS5B] | 2.14 |
| GYPAAPPAVPFAPHFLQGGPFPLP [TBX6] | 2.7 |
| FKAYIKIYQGEDLPHPKSMLQATA [ATL3] | 2.5 |
| TVSIMEPGETRRNSYPRADTGLFS [TRIM29] | 3.64 |
| NNPEYLRERNMAPDLRQDFNMMEQ [ADD1] | 4.87 |
| RKLQKEQQRSKDLESRQRSLEQAN [TFE3] | 5.11 |
| RNRGRFSSTTGLFYSAEIICAIEY [PRKX] | 2.91 |
| RASYSDGKLKAPPKPCAGNQGTQI [MLH1] | 4.17 |
| SDARVVKDMATGKSKGYGFVSFFN [TIA1] | 2.77 |

* * *

- METHOD_NOTES: protein stability index of a GFP-peptide fusion (GPS, HEK-293T) (PSI 1-6); higher = more stable
- RUN_CONDITIONS: treatment: MLN4924 1 uM, 8 h; c terminus: a fixed tail appended
RECORDED_ENDPOINT: protein stability index

| PRIMARY_SEQUENCE | OBS_VALUE |
| --- | --- |
| ANSSSEAPFPNVSTSLLTSAGNRT [ADAMTSL2] | 4.49 |
| APSKEEMLSWILRINLVAAIFSAP [PSD2] | 3.03 |
| GKVAVGQDDLTVVLNEEGICTQKC [VPS39] | 4.79 |
| VTGREGFPTDAPYPTTLGKDRECQ [ZNF8] | 4.8 |
| TGPQLPESLEDVAMYISQEEWGHQ [ZNF263] | 4.52 |
| QALQAKASLTIPLVPETEDDRKLA [YJU2B] | 5.24 |
| LKDTYASLGKTNVKDDELDAMLKE [MYL5] | 5.35 |
| MLGYKRHLALHAASSGDLTCGVCA [PLAGL1] | 2.73 |
| ERSGCALTDAVAPGNKGRGQRGNT [TCF25] | 5.23 |
| ISCPTCRRETVLFTDYGLAALAVN [RNF208] | 2.22 |
| SVMVMREILDYIFSGQIRLNEDTI [GAN] | 2.32 |
| SGGGSTSAAGIEARSRALRRRWCP [SPACA3] | 4 |
| DKLYHPECFMCSDCGLNLKQRGYF [PDLIM4] | 2.23 |
| AVEGAARTTPSRREITGVQAQPGE [PALM] | 5.31 |
| HMVKISGGPRISYPLLHEWALREG [MAGEA6] | 2.46 |
| QRGALPAPDPELAAEMYQRGRAVL [RSAD1] | 4.38 |
| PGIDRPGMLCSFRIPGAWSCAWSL [DCAF4] | 2.96 |
| DGPCHKRRASICCTQLGSLSALKH [SCARA5] | 3.65 |
| QLDIEEEGRPGAATFHVGGGPAQN [TFE3] | 5.16 |
| GSPDDSHPKDGPSPGGTLMDLSER [DLC1] | 5.48 |
| LAKEIRVKAEPFIKWLKEAEEESS [EIF5] | 3.9 |
| TLASVPPAATFGADDLVLTLSNPQ [ELF3] | 4.25 |
| GGWETVFRPVSETCTDRSGISTGH [FUT8] | 3.43 |
| PTLDAPGGRALVVRKVPPGYSIKV [SMAD6] | 3.17 |
| PQHVSSDKEVRAASTEADKRLSRF [NLN] | 5.1 |
| ERLCMGVDCTEIFGGNPRFLSLHR [ZNF263] | 2.83 |
| LPVASSSTLLPLAPSNSTSLNSTF [NFE2L1] | 3.65 |
| PPATQNTFGNSTLALGPGESLPHR [PLAGL1] | 4.39 |

* * *

- METHOD_NOTES: protein stability index of a GFP-peptide fusion (GPS, HEK-293T) (PSI 1-6); higher = more stable
- RUN_CONDITIONS: treatment: DMSO; c terminus: a fixed tail appended
RECORDED_ENDPOINT: protein stability index

| PRIMARY_SEQUENCE | OBS_VALUE |
| --- | --- |
| IGAFLNLVVLRFLTMNSEDERRDA [KCNK9] | 3.27 |
| QLKAVHEQLAALSQAPVNKPKKKK [BRD3] | 4.51 |
| KEDKIMLDDRKNEEDGGADEHEHP [MIA2] | 5.52 |
| LFHRLDEDWDSALFAELGYFTDTD [ATF6] | 2.91 |
| FTDTSIILFLNKKDLFEEKIKKSP [GNAI1] | 2.2 |
| FVETRLRDLPDTPRRFTFYPCVLA [TRIM39] | 2.63 |
| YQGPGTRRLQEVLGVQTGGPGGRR [DYRK1B] | 3.59 |
| TQSLPTASASKFPSSGPVTPQPTA [AUP1] | 4.85 |
| TGSTYNLSSGMAVAGMPTAYDLSS [CARM1] | 3.27 |
| NFFRMFDRNTKRDVTLEASRESSK [PPP2R2C] | 3.74 |
| GGPAGQAGRGGAAGTAGVGETGSG [MYOZ1] | 5.42 |
| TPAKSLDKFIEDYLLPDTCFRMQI [OAS1] | 2.51 |
| LGEVAYHDYHGILVDEEEKVLIQK [ADD1] | 4.9 |

* * *

Item-by-item account of protein stability index
- METHOD_NOTES: protein stability index of a GFP-peptide fusion (GPS, HEK-293T) (PSI 1-6); higher = more stable
- RUN_CONDITIONS: treatment: DMSO; c terminus: a fixed tail appended
RECORDED_ENDPOINT: protein stability index

| PRIMARY_SEQUENCE | OBS_VALUE |
| --- | --- |
| GESDNPLRFTSGLVVALDVDATLE [INTS4] | 3.23 |
| RPSTYYELLGVHPGASTEEVKRAF [DNAJC4] | 3.48 |
| TEKDLLEDGFGEHPFYHCLVAEVP [SAT1] | 3.35 |
| HFCVDDTKLLSGSYDCTVKLWDPV [WDR88] | 2.65 |
| AAPGKQPGRGHTHAAQGGPLLCPG [ELOA2] | 4.09 |
| PSDPLVSIGALISKAHLEKVRSYV [ALDH8A1] | 2.05 |
| ITFPSLESCEEKNQLILTASADRT [WDR41] | 4.02 |
| PERIYQGSSGSYFVKDPQGRIIAV [PI4K2A] | 2.78 |
| MQVHKETIDAVPNAIPGRTDIELE [ZNF207] | 4.97 |
| ENYDIIKTYHYLYLAMLERFQDGD [FEM1B] | 2.37 |
